system.tested: rat CB2 receptors (Rattus norvegicus)
Construct: expressed in transfected cells; host or cells: HEK293
Sequence (Q9QZN9 1-360): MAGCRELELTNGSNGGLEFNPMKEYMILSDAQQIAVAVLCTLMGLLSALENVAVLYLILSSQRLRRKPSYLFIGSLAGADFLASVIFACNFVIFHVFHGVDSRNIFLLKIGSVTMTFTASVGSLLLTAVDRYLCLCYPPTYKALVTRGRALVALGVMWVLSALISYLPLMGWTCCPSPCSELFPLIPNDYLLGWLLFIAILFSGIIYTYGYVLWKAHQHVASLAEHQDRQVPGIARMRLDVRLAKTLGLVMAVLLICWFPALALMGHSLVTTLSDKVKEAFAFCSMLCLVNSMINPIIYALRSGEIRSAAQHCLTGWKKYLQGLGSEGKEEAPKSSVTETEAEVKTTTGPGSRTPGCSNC
test.summary: Rat CB2 radioligand binding assay ([3H]CP-55,940 competition)
pKi: −log10 of the molar value.
pKi of 8 or higher: YES. Under 8: NO.

compound | classification
Cn1c(C(C)(C)C)c/c(=N\C(=O)c2cc(C(F)(F)F)ccc2NS(C)(=O)=O)n1C[C@H]1CCCO1 | NO
COC(=O)Cc1ccc(C(F)(F)F)cc1C(=O)/N=c1\cc(C(C)(C)C)n(C)n1C[C@H]1CCCO1 | NO
Cn1c(C(C)(C)C)c/c(=N\C(=O)c2cccc(C(F)(F)F)c2F)n1C[C@H]1CCCO1 | YES
CN(C)CCOc1ccc(C(F)(F)F)cc1C(=O)/N=c1\oc(C(C)(C)C)cn1C[C@H]1CCCO1 | NO
CO[C@@H](C)COc1ccc(C(F)(F)F)cc1C(=O)/N=c1\cc(C(C)(C)C)n(C)n1C[C@H]1CCCO1 | NO
COc1ccc(Cl)cc1C(=O)/N=c1\cc(C(C)(C)C)n(C)n1C[C@H]1CCCO1 | YES
Cn1c(C(C)(C)C)c/c(=N\C(=O)c2cc(F)cc(C(F)(F)F)c2)n1C[C@H]1CCCO1 | YES
Cn1c(C(C)(C)C)c/c(=N\C(=O)c2cc(C(F)(F)F)ccc2/C=C/C(C)(C)O)n1C[C@H]1CCCO1 | YES
COc1ccc(Cl)cc1C(=O)/N=c1\cc(C(C)(C)C)on1C[C@H]1CCCO1 | YES
CC(CF)Oc1ccc(C(F)(F)F)cc1C(=O)/N=c1\cc(C(C)(C)C)n(C)n1C[C@H]1CCCO1 (some centres unmarked) | NO
COc1ccc(Cl)cc1C(=O)/N=c1\sc(C(C)(C)C(F)(F)F)nn1C[C@H]1CCCO1 | YES
CO[C@H]1C[C@@H](COc2ccc(C(F)(F)F)cc2C(=O)/N=c2\cc(C(C)(C)C)n(C)n2C[C@H]2CCCO2)C1 | NO
C#CC(C)(C)c1nn(C[C@H]2CCCO2)/c(=N/C(=O)c2cc(Cl)ccc2OC)s1 | YES
Cn1c(C(C)(C)C)c/c(=N\C(=O)c2cc(C(F)(F)F)ccc2NCCF)n1C[C@H]1CCCO1 | YES
Cn1c(C(C)(C)C)c/c(=N\C(=O)c2cc(C(F)(F)F)ccc2Oc2ccccc2)n1C[C@H]1CCCO1 | NO

---

This listing pairs molecules with measured Ki.
system.tested: rat CB2 receptors (Rattus norvegicus)
Construct: expressed in transfected cells; host or cells: HEK293
Sequence (Q9QZN9 1-360): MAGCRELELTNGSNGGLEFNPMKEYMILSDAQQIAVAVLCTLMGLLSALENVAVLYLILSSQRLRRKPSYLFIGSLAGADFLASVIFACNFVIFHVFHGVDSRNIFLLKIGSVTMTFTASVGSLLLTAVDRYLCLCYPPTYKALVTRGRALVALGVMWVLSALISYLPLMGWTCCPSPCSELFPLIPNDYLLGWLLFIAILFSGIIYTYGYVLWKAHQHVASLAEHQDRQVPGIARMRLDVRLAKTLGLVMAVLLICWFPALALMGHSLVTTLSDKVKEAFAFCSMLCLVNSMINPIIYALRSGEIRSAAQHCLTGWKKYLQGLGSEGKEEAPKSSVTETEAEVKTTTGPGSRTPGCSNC
test.summary: Rat CB2 radioligand binding assay ([3H]CP-55,940 competition)

molecule | system.tested | output.unit | Ki
COc1ccc(Cl)cc1C(=O)/N=c1\sc(C2CC2)nn1CC1CCCO1 (centres unmarked) [Example 2] | rat CB2 receptors (Rattus norvegicus) | nM | 12
Cn1c(C(C)(C)C)c/c(=N\C(=O)c2cc(OCCF)cc(C(F)(F)F)c2)n1C[C@H]1CCCO1 [Example 105] | rat CB2 receptors (Rattus norvegicus) | nM | 10
COc1ccc(C(F)(F)F)cc1C(=O)/N=c1\cc(C2(C)CC2)n(C)n1C[C@H]1CCCO1 [Example 33] | rat CB2 receptors (Rattus norvegicus) | nM | 14
Cn1c(C(C)(C)C)c/c(=N\C(=O)c2cc(C(F)(F)F)ccc2/C=N\OC(C)(C)C)n1C[C@H]1CCCO1 [Example 109] | rat CB2 receptors (Rattus norvegicus) | nM | 15
COCCCOc1ccc(C(F)(F)F)cc1C(=O)/N=c1\cc(C(C)(C)C)n(C)n1C[C@H]1CCCO1 [Example 30] | rat CB2 receptors (Rattus norvegicus) | nM | 11
CN(C)S(=O)(=O)Nc1ccc(C(F)(F)F)cc1C(=O)/N=c1\cc(C(C)(C)C)n(C)n1C[C@H]1CCCO1 [Example 121] | rat CB2 receptors (Rattus norvegicus) | nM | 15
COc1ccc(Cl)cc1C(=O)/N=c1\cc(C(C)(C)C)ccn1C[C@H]1CCCO1 [Example 61] | rat CB2 receptors (Rattus norvegicus) | nM | 13
Cn1c(C(C)(C)C)c/c(=N\C(=O)c2cc(Br)ccc2F)n1C[C@H]1CCCO1 [Example 132] | rat CB2 receptors (Rattus norvegicus) | nM | 7.1
CC1CCC(NC(=O)/N=c2\sc(C(C)(C)C)nn2C[C@H]2CCCO2)CC1 (some centres unmarked) [Example 67] | rat CB2 receptors (Rattus norvegicus) | nM | 10
Cn1c(C(C)(C)C)c/c(=N\C(=O)c2cc(C(F)(F)F)ccc2OCC2CC(F)(F)C2)n1C[C@H]1CCCO1 [Example 19] | rat CB2 receptors (Rattus norvegicus) | nM | 11
Cn1c(C(C)(C)C)c/c(=N\C(=O)c2cc(C(F)(F)F)ccc2Cl)n1C[C@H]1CCCO1 [Example 54] | rat CB2 receptors (Rattus norvegicus) | nM | 9.5
